Assay: MRT (0 to t) in Sprague-Dawley rat at 5 mg/kg, po measured upto 24 hrs by LC/MS/MS analysis
Type: ADME, organism-based
Conditions: in vivo
measured.metric: MRT last at 24 h (h)
Give bare numbers, in h.

Just so you know, measured MRT last at 24 h for CCOc1ccc(NC(=O)C(C)C)cc1C(=O)NC(C)c1cccc(NC)c1 (stereo unspecified) came out at 2.05

---

Assay: Tmax in Sprague-Dawley rat at 5 mg/kg, po measured upto 24 hrs by LC/MS/MS analysis
Assay type: ADME, organism-based
Conditions: in vivo
measured.metric: Tmax (min)
One number for each entry, in min.

Just so you know, measured Tmax for CCOc1ccc(NC(=O)C(C)C)cc1C(=O)NC(C)c1cccc(NC)c1 (stereo unspecified) came out at 39
